Compiled from multiple publications: Ki readings for Tyrosine-protein kinase JAK1 (Homo sapiens).
Your answer should be a plain number; it is taken to be in nM.

// below: answered molecules
molecule=O=C(Nc1c[nH]nc1-c1cc(Cl)ccc1OC(F)F)c1cnc2cccnn12 reported_result=0.21
molecule=O=C(Nc1c[nH]nc1-c1c(OC(F)F)ccc(Cl)c1F)c1cnn2cccnc12 reported_result=0.56
molecule=CC1(n2nnc3cnc4[nH]ccc4c32)CCN(CCC#N)CC1 reported_result=156
molecule=Cc1ccn2ncc(C(=O)Nc3c[nH]nc3-c3cc(Cl)ccc3OC(F)F)c2n1 reported_result=0.99
molecule="CS(=O)(=O)NCCc1nc2cnc3[nH]ccc3c2n1C1CC2CCC1C2 (racemic)" reported_result=0.6

Record request: Ki value, item "COc1ccc(Cl)cc1-c1nn(C)cc1NC(=O)c1cncc2[nH]cnc12"
5.7

Record request: Ki value, item "OC[C@@H](O)c1nc2cnc3[nH]ccc3c2n1C1CCCCC1"
1.6

Record request: Ki value, item "Cc1cc(Nc2nccc3nc(-c4c(Cl)cc(C#N)cc4Cl)[nH]c23)ncn1"
23

Record request: Ki value, item "Cn1cc(NC(=O)c2cnn3cccnc23)c(-c2cc(Cl)ccc2C2CC2)n1"
0.91

* * *

Compiled from multiple publications: pKi readings for Tyrosine-protein kinase JAK1 (Homo sapiens).
pKi: −log10 of the molar value.
Where pKi equals or exceeds 8, the correct label is True; where it does not, the label is False.

Examples with answers:
compound=C[C@@H](O)c1nc2cnc3[nH]ccc3c2n1[C@H]1CC[C@H](CC#N)CC1 class_label=True
compound=CCOc1ccc(Cl)cc1-c1n[nH]cc1NC(=O)c1cnn2cccnc12 class_label=True

Here is the next item to consider.
Is reported pKi greater than or equal to 8 here: N#CCCN1CCC(n2c(CC3CCCO3)nc3cnc4[nH]ccc4c32)CC1 (racemic)
False

* * *

Compiled from multiple publications: pKi readings for Tyrosine-protein kinase JAK1 (Homo sapiens).
Recall that pKi is obtained by taking minus log10 of the concentration measured in molar.

// below: answered compounds
compound=COc1ccc(Cl)c(F)c1-c1n[nH]cc1NC(=O)c1cnn2cccnc12 measurement_target="Tyrosine-protein kinase JAK1 (Homo sapiens)" measurement_kind=pKi reported_result=9.02
compound="N#CCCN1CCC(n2c(CCC3CCCO3)nc3cnc4[nH]ccc4c32)CC1 (racemic)" measurement_target="Tyrosine-protein kinase JAK1 (Homo sapiens)" measurement_kind=pKi reported_result=8.06
compound=CC(C)(C)OC(=O)N[C@@H]1CC[C@@H](n2nnc3cnc4[nH]ccc4c32)C1 measurement_target="Tyrosine-protein kinase JAK1 (Homo sapiens)" measurement_kind=pKi reported_result=8.62
compound=CC1(n2nnc3cnc4[nH]ccc4c32)CCN(S(C)(=O)=O)CC1 measurement_target="Tyrosine-protein kinase JAK1 (Homo sapiens)" measurement_kind=pKi reported_result=8.10
compound=Cn1ccc(CCc2nc3cnc4[nH]ccc4c3n2C2CCN(CCC#N)CC2)n1 measurement_target="Tyrosine-protein kinase JAK1 (Homo sapiens)" measurement_kind=pKi reported_result=7.89

Now, please, on to the next compound.
Record request: pKi value, item "C[C@@H](O)c1nc2cnc3[nH]ccc3c2n1[C@@H]1CCCN(C(=O)CC(F)(F)F)C1"
7.37

* * *

Compiled from multiple publications: pKi readings for Tyrosine-protein kinase JAK1 (Homo sapiens, UniProt P23458).
Recall that pKi is obtained by taking minus log10 of the concentration measured in molar.

compound=OC[C@H](O)c1nc2cnc3[nH]ccc3c2n1C1CCCCC1 measurement_target="Tyrosine-protein kinase JAK1 (Homo sapiens, UniProt P23458)" reported_result=8.14
compound=C[C@@H](O)c1nc2cnc3[nH]ccc3c2n1[C@H]1CC[C@H](NCC(F)F)CC1 measurement_target="Tyrosine-protein kinase JAK1 (Homo sapiens, UniProt P23458)" reported_result=8.96
compound=N#CCCN1CCC(n2c(C3CCC3)nc3cnc4[nH]ccc4c32)CC1 measurement_target="Tyrosine-protein kinase JAK1 (Homo sapiens, UniProt P23458)" reported_result=8.37
compound=C[C@@H](O)c1nc2cnc3[nH]ccc3c2n1C1CCN(CC(F)(F)F)CC1 measurement_target="Tyrosine-protein kinase JAK1 (Homo sapiens, UniProt P23458)" reported_result=8.59
compound=COC(=O)N[C@H]1CC[C@H](n2nnc3cnc4[nH]ccc4c32)CC1 measurement_target="Tyrosine-protein kinase JAK1 (Homo sapiens, UniProt P23458)" reported_result=7.92
compound=C[C@@H](O)c1nc2cnc3[nH]ccc3c2n1[C@H]1CC[C@@H](O)CC1 measurement_target="Tyrosine-protein kinase JAK1 (Homo sapiens, UniProt P23458)" reported_result=7.92

Report pKi for CC(=O)NCc1nc2cnc3[nH]ccc3c2n1C1CC2CCC1C2 (racemic) tested on Tyrosine-protein kinase JAK1 (Homo sapiens, UniProt P23458).
Sequence (P23458 whole entry): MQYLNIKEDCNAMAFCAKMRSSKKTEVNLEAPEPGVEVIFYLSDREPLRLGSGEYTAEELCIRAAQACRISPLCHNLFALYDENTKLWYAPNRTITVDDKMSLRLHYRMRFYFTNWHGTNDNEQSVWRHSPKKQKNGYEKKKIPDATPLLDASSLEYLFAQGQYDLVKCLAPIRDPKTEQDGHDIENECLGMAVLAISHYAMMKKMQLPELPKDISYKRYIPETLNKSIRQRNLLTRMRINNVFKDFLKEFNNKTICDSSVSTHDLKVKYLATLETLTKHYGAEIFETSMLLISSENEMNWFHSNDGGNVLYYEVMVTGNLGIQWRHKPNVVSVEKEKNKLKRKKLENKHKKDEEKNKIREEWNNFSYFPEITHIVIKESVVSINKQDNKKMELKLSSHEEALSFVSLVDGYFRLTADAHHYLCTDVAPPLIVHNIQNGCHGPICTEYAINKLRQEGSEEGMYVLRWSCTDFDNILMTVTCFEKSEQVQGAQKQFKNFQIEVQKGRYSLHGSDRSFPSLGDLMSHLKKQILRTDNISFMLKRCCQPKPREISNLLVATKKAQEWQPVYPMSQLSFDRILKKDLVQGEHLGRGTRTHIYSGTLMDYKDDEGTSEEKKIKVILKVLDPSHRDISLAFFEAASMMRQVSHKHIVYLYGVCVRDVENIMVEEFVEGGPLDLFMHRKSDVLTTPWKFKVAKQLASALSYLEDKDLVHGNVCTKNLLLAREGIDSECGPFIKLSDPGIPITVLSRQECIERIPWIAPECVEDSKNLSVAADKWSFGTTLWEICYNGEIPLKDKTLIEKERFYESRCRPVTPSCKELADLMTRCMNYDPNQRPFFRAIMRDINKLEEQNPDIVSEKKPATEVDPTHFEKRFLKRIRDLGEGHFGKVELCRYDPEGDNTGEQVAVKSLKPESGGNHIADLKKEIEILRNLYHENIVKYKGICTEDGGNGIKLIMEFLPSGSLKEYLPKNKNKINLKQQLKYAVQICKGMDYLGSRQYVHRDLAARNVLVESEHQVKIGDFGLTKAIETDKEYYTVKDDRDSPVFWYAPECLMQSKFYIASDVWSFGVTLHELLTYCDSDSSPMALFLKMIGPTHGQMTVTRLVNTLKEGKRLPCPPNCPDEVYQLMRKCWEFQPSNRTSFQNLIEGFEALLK
8.52

Report pKi for "CCc1ccc(OC(F)F)c(-c2n[nH]cc2NC(=O)c2cnn3cccnc23)c1" tested on Tyrosine-protein kinase JAK1 (Homo sapiens, UniProt P23458).
9.28

Report pKi for "Nc1nn2cccnc2c1C(=O)Nc1c[nH]nc1-c1cc(Cl)ccc1OC(F)F" tested on Tyrosine-protein kinase JAK1 (Homo sapiens, UniProt P23458).
9.72
